tested on: Pseudomonas aeruginosa PAO1-Xen41; test: Emax, maximal drug effect on net growth rate (fitted lower asymptote) (per hour (slope of log luminescence)); higher = weaker maximal killing (less negative); conditions: medium (conditioned by secondary species or non-conditioned control): S. pneumoniae
attributeMeasured: Emax

molecule="C[C@@H](O)[C@H]1C(=O)N2C(C(=O)O)=C(S[C@@H]3CN[C@H](C(=O)N(C)C)C3)[C@H](C)[C@H]12 [meropenem]" val=-0.189
molecule="O=C(O)c1cn(C2CC2)c2cc(N3CCNCC3)c(F)cc2c1=O [ciprofloxacin]" val=-0.117
molecule="NC[C@H]1O[C@H](O[C@H]2[C@H](O)[C@@H](O[C@H]3O[C@H](CO)[C@@H](O)[C@H](N)[C@H]3O)[C@H](N)C[C@@H]2N)[C@H](N)C[C@@H]1O [tobramycin]" val=-0.128

---

test system: Pseudomonas aeruginosa PAO1-Xen41; assay: Emax, maximal drug effect on net growth rate (fitted lower asymptote) (per hour (slope of log luminescence)); higher = weaker maximal killing (less negative); conditions: medium (conditioned by secondary species or non-conditioned control): S. aureus
attributeMeasured: Emax

compound=CN(C)c1ccc(O)c2c1C[C@H]1C[C@H]3[C@H](N(C)C)C(O)=C(C(N)=O)C(=O)[C@@]3(O)C(O)=C1C2=O val=-0.776
compound=CO[C@H]1/C=C/O[C@@]2(C)Oc3c(C)c(O)c4c(O)c(c(/C=N/N5CCN(C)CC5)c(O)c4c3C2=O)NC(=O)/C(C)=C\C=C\[C@H](C)[C@H](O)[C@@H](C)[C@@H](O)[C@@H](C)[C@H](OC(C)=O)[C@@H]1C val=-0.461
compound=CC(C)(O/N=C(\C(=O)N[C@@H]1C(=O)N2C(C(=O)[O-])=C(C[n+]3ccccc3)CS[C@H]12)c1csc(N)n1)C(=O)O val=-0.069
compound=C[C@@H]1O[C@@H]1P(=O)(O)O val=-0.122
compound="CCC(C)CCCC(=O)N[C@@H](CCN)C(=O)N[C@H](C(=O)N[C@@H](CCN)C(=O)N[C@H]1CCNC(=O)[C@H]([C@@H](C)O)NC(=O)[C@H](CCN)NC(=O)[C@H](CCN)NC(=O)[C@H](CC(C)C)NC(=O)[C@@H](CC(C)C)NC(=O)[C@H](CCN)NC1=O)[C@@H](C)O (stereo not given in full)" val=-0.966

---

tested on: Pseudomonas aeruginosa PAO1-Xen41; assay: EC50 of growth/kill rate concentration-effect curve; conditions: medium (conditioned by secondary species or non-conditioned control): A. baumannii
Recorded EC50 for the following molecules
attributeMeasured: EC50 (µg/mL)

molecule=C[C@@H](O)[C@H]1C(=O)N2C(C(=O)O)=C(S[C@@H]3CN[C@H](C(=O)N(C)C)C3)[C@H](C)[C@H]12 attributemeasured=EC50 measurementunit=µg/mL val=2.68
molecule=C[C@@H]1O[C@@H]1P(=O)(O)O attributemeasured=EC50 measurementunit=µg/mL val=149
molecule=CO[C@H]1/C=C/O[C@@]2(C)Oc3c(C)c(O)c4c(O)c(c(/C=N/N5CCN(C)CC5)c(O)c4c3C2=O)NC(=O)/C(C)=C\C=C\[C@H](C)[C@H](O)[C@@H](C)[C@@H](O)[C@@H](C)[C@H](OC(C)=O)[C@@H]1C attributemeasured=EC50 measurementunit=µg/mL val=58.4
molecule="CCC(C)CCCC(=O)N[C@@H](CCN)C(=O)N[C@H](C(=O)N[C@@H](CCN)C(=O)N[C@H]1CCNC(=O)[C@H]([C@@H](C)O)NC(=O)[C@H](CCN)NC(=O)[C@H](CCN)NC(=O)[C@H](CC(C)C)NC(=O)[C@@H](CC(C)C)NC(=O)[C@H](CCN)NC1=O)[C@@H](C)O (some centres undefined)" attributemeasured=EC50 measurementunit=µg/mL val=3.78
molecule=C[C@H]1[C@H](NC(=O)/C(=N\OC(C)(C)C(=O)O)c2csc(N)n2)C(=O)N1S(=O)(=O)O attributemeasured=EC50 measurementunit=µg/mL val=4.5
molecule=CN(C)c1ccc(O)c2c1C[C@H]1C[C@H]3[C@H](N(C)C)C(O)=C(C(N)=O)C(=O)[C@@]3(O)C(O)=C1C2=O attributemeasured=EC50 measurementunit=µg/mL val=41.5
molecule=O=C(O)c1cn(C2CC2)c2cc(N3CCNCC3)c(F)cc2c1=O attributemeasured=EC50 measurementunit=µg/mL val=0.0737
molecule=NC[C@H]1O[C@H](O[C@H]2[C@H](O)[C@@H](O[C@H]3O[C@H](CO)[C@@H](O)[C@H](N)[C@H]3O)[C@H](N)C[C@@H]2N)[C@H](N)C[C@@H]1O attributemeasured=EC50 measurementunit=µg/mL val=0.257
molecule=CC(C)(O/N=C(\C(=O)N[C@@H]1C(=O)N2C(C(=O)[O-])=C(C[n+]3ccccc3)CS[C@H]12)c1csc(N)n1)C(=O)O attributemeasured=EC50 measurementunit=µg/mL val=1.62
